Recorded Kd values for a group of molecules are listed next.
# MEASURED_ON: XIAP-BIR3 (Homo sapiens, UniProt P98170)
# Sequence (P98170 241-356 limits assumed): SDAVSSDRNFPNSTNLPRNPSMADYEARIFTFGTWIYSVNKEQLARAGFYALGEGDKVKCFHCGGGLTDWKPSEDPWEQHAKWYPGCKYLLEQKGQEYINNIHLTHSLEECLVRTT
# METHOD: XIAP BIR3 fluorescence polarization binding assay (competition with AbuRPF-K(5-Fam)-NH2)
# TEST_CONDITIONS: 5 nM AbuRPF-K(5-Fam)-NH2, 40 nM XIAP-BIR3, pH 7.5; Kd calculated from measured IC50; read-out: KD Range

Before answering, review these 5 worked examples.
CC(C)[C@H](NC(=O)[C@H](C)N)C(=O)N1C[C@@H](Oc2ccccc2)C[C@H]1Cc1coc2ccccc12 [Entry 5-39]    < 100 nM
CC(C)[C@H](NC(=O)[C@H](C)N)C(=O)N1C[C@@H](Oc2ccccc2)C[C@H]1/C=C/COc1ccccc1-c1ccccc1 [Entry 3-20]    100 to 1000 nM
CC[C@H](NC(=O)[C@H](C)N)C(=O)N1C[C@@H](Oc2ccccc2)C[C@H]1Cc1coc2ccccc12 [Entry 5-54]    < 100 nM
CNC(C)C(=O)NC(C(=O)N1CCCC1Cc1c(Br)n(CCOCCOCCOC)c2cc(F)ccc12)C(C)(C)C (stereo not shown) [Entry 16-113]    < 100 nM
CCNC(C)C(=O)NC(C(=O)N1CCCC1Cc1coc2ccccc12)C(C)C (stereo not shown) [Entry 5-68]    1000 to 10000 nM

Entry under review: CNC(C)C(=O)NC(C(=O)N1CCCC1Cc1cn(CCOCCOCCOC)c2cc(F)ccc12)C1CCCCC1 (stereo not shown) [Entry 16-109] . Reported Kd?
100 to 1000 nM

# Kd lookup, item CC(C)[C@H](NC(=O)[C@H](C)N)C(=O)N1C[C@@H](Oc2ccccc2)C[C@H]1/C=C/COc1ccc(Cl)cc1Cl [Entry 3-11]
100 to 1000 nM

----------
The following compounds are shown together with reported pKd values.
# MEASURED_ON: XIAP-BIR3 (Homo sapiens)
# METHOD: XIAP BIR3 fluorescence polarization binding assay (competition with AbuRPF-K(5-Fam)-NH2)
# TEST_CONDITIONS: 5 nM AbuRPF-K(5-Fam)-NH2, 40 nM XIAP-BIR3, pH 7.5; Kd calculated from measured IC50; read-out: KD Range
pKd: −log10 of the molar value.

CC(C)Oc1ccccc1OCCCC1CCCN1C(=O)C(NC(=O)C(C)N)C(C)C (stereo not shown) [Entry 4-35]    5.00 to 6.00
Cc1cccc(C)c1OCCC[C@@H]1C[C@H](Oc2ccccc2)CN1C(=O)[C@@H](NC(=O)[C@H](C)N)C(C)C [Entry 4-31]    6.00 to 7.00
CC(N)C(=O)NC(C(=O)N1CCCC1Cc1c(-c2cccnc2)oc2ccccc12)C(C)C (stereo not shown) [Entry 9-82]    6.00 to 7.00
CNC(C)C(=O)NC(C(=O)N1CCCC1COc1ccccc1-c1ccccc1)C(C)C (stereo not shown) [Entry 2-5]    6.00 to 7.00
CC(C)[C@H](NC(=O)[C@H](C)N)C(=O)N1CCC[C@H]1Cc1c(-c2ccncc2)oc2ccccc12 [Entry 9-81]    > 7.00
CCc1ccccc1OCCCC1CC(Oc2ccccc2)CN1C(=O)C(NC(=O)CN)C(C)C (stereo not shown) [Entry 4-27]    < 5.00
CNC(C)C(=O)NC(C(=O)N1CCCC1Cc1c[nH]c2cc(F)ccc12)C1CCCCC1 (stereo not shown) [Entry 14-104]    6.00 to 7.00
CC(C)[C@H](NC(=O)[C@H](C)N)C(=O)N1C[C@@H](Oc2ccccc2)C[C@H]1/C=C/COc1ccccc1Br [Entry 3-9]    6.00 to 7.00
CC(C)[C@H](NC(=O)[C@H](C)N)C(=O)N1CCC[C@H]1Cc1coc2ccccc12 [Entry 5-41]    > 7.00
COc1ccccc1OC/C=C/[C@@H]1C[C@H](Oc2ccccc2)CN1C(=O)[C@@H](NC(=O)CN)C(C)C [Entry 3-19]    < 5.00

Notebook: pull reported pKd for XIAP-BIR3 (Homo sapiens), entry CC(=O)n1cc(CC2CCCN2C(=O)C(NC(=O)C(C)N)C(C)C)c2cccc(C)c21 (stereo not shown) [Entry 14-98]
> 7.00

Report pKd for CNC(C)C(=O)NC(C(=O)N1CCCC1Cc1c(Br)n(CCOCCOCCO)c2cc(F)ccc12)C(C)(C)C (stereo not shown) [Entry 16-112] tested on XIAP-BIR3 (Homo sapiens).
> 7.00
